Just for reference, ChEMBL document CHEMBL3875142 is where these values come from.

- ASSAY_METHOD_TEXT: Inhibition of thiazole orange binding to pu27 G-quadruplex DNA (unknown origin) by fluorescence assay
pEC50: −log10 of the molar value.
ENDPOINT_LABEL: pEC50

| STRUCTURE_AS_SMILES | QUANTITATIVE_RESULT |
| --- | --- |
| CN(C)CCCCNc1nc2ccccc2c2nc3ccccc3nc12 | 6.24 |
| CN(C)CCCn1c(=O)c2nc3ccccc3nc2c2ccccc21 | 5.88 |

###

- ASSAY_METHOD_TEXT: Binding affinity to 5'-dabcyl/3'-fluorescein labeled duplex DNA (unknown origin) assessed as change in melting temperature at 10 uM by fluorescence assay
Please assign NO whenever ΔTm is at or above 0.3 °C, and YES whenever it is below.

| STRUCTURE_AS_SMILES | LABEL_CLASS |
| --- | --- |
| CCN(CC)CCNc1nc2ccccc2c2nc3ccccc3nc12 | NO |
| CN(C)CCCn1c(=O)c2nc3ccccc3nc2c2ccccc21 | NO |
| O=c1c2nc3ccccc3nc2c2ccccc2n1CCN1CCOCC1 | YES |
| CCN(CC)CCn1c(=O)c2nc3ccccc3nc2c2ccccc21 | NO |
| Cc1cc2c(=O)n(CCN(C)C)c3ccccc3c2nn1 | YES |
| O=c1[nH]c2ccccc2c2nc3ccccc3nc12 | YES |

###

Below, each of the compounds is paired with its reported ΔTm value.
- ASSAY_METHOD_TEXT: Binding affinity to 5'-dabcyl/3'-fluorescein labeled pu27 G-quadruplex DNA (unknown origin) assessed as change in melting temperature at 10 uM by fluorescence assay
ENDPOINT_LABEL: ΔTm

| STRUCTURE_AS_SMILES | ENDPOINT_LABEL | RESULT |
| --- | --- | --- |
| CCN(CC)CCCNc1nc2ccccc2c2nc3ccccc3nc12 | ΔTm | 5.9 °C |
| CN(C)CCCNc1nc2ccccc2c2nc3ccccc3nc12 | ΔTm | 5.9 °C |
| c1ccc2nc3c(nc2c1)c(NCCN1CCCCC1)nc1ccccc13 | ΔTm | 1.4 °C |
| CN(C)CCn1c(=O)c2nc3ccccc3nc2c2ccccc21 | ΔTm | 4.1 °C |
| CN(C)CCCn1c(=O)c2nc3ccccc3nc2c2ccccc21 | ΔTm | 5.5 °C |
| CN(CCCCCNc1nc2ccccc2c2nc3ccccc3nc12)Cc1ccccc1 | ΔTm | 5.9 °C |
| CCN(CC)CCNc1nc2ccccc2c2nc3ccccc3nc12 | ΔTm | 3.8 °C |

###

- Organism: Homo sapiens
- ASSAY_METHOD_TEXT: Binding affinity to 5'-dabcyl/3'-fluorescein labeled human telomeric sequence G-quadruplex DNA assessed as change in melting temperature at 10 uM by fluorescence assay
Please assign N whenever ΔTm is at or above 2 °C, and Y whenever it is below.

| STRUCTURE_AS_SMILES | LABEL_CLASS |
| --- | --- |
| c1ccc2nc3c(nc2c1)c(NCCN1CCCCC1)nc1ccccc13 | Y |
| CN(C)CCCCNc1nc2ccccc2c2nc3ccccc3nc12 | N |
| CN(C)CCCNc1nc2ccccc2c2nc3ccccc3nc12 | N |
| CCN(CC)CCNc1nc2ccccc2c2nc3ccccc3nc12 | Y |
| CN(C)CCSc1nc2ccccc2c2nc3ccccc3nc12 | N |

###

- ASSAY_METHOD_TEXT: Binding affinity to 5'-dabcyl/3'-fluorescein labeled pu27 G-quadruplex DNA (unknown origin) assessed as change in melting temperature at 10 uM by fluorescence assay
ENDPOINT_LABEL: ΔTm

| STRUCTURE_AS_SMILES | RESULT |
| --- | --- |
| CN(C)CCCCNc1nc2ccccc2c2nc3ccccc3nc12 | 9.4 °C |
| Cc1cc2c(=O)n(CCCN(C)C)c3ccccc3c2nn1 | 2.1 °C |
| O=c1c2nc3ccccc3nc2c2ccccc2n1CCN1CCOCC1 | 0 °C |
| CN(C)CCCCn1c(=O)c2nc3ccccc3nc2c2ccccc21 | 6.4 °C |
| Cc1cc2c(=O)n(CCN(C)C)c3ccccc3c2nn1 | 0.6 °C |
| CN(C)CCNc1nc2ccccc2c2nc3ccccc3nc12 | 4 °C |
| CCN(CC)CCn1c(=O)c2nc3ccccc3nc2c2ccccc21 | 3.5 °C |
| CCN(CC)CCOc1nc2ccccc2c2nc3ccccc3nc12 | 0.8 °C |
| CN(C)CCSc1nc2ccccc2c2nc3ccccc3nc12 | 8.8 °C |
| O=c1[nH]c2ccccc2c2nc3ccccc3nc12 | 0 °C |
| CN(C)CCCOc1nc2ccccc2c2nc3ccccc3nc12 | 4.1 °C |
| c1ccc2nc3c(nc2c1)c(NCCN1CCOCC1)nc1ccccc13 | 0 °C |

###

- ASSAY_METHOD_TEXT: Inhibition of thiazole orange binding to cKit G-quadruplex DNA (unknown origin) by fluorescence assay
pEC50: −log10 of the molar value.
ENDPOINT_LABEL: pEC50

| STRUCTURE_AS_SMILES | ENDPOINT_LABEL | QUANTITATIVE_RESULT |
| --- | --- | --- |
| CN(C)CCCn1c(=O)c2nc3ccccc3nc2c2ccccc21 | pEC50 | 5.45 |
| CN(C)CCCCNc1nc2ccccc2c2nc3ccccc3nc12 | pEC50 | 6.08 |

###

Below, each of the molecules is paired with its reported ΔTm value.
- ASSAY_METHOD_TEXT: Binding affinity to 5'-dabcyl/3'-fluorescein labeled cKit G-quadruplex DNA (unknown origin) assessed as change in melting temperature at 10 uM by fluorescence assay

| STRUCTURE_AS_SMILES | UNITS_SYMBOL | ΔTm |
| --- | --- | --- |
| Cc1cc2c(=O)n(CCN(C)C)c3ccccc3c2nn1 | °C | 2.7 |
| CN(C)CCNc1nc2ccccc2c2nc3ccccc3nc12 | °C | 9.7 |
| CN(C)CCCCNc1nc2ccccc2c2nc3ccccc3nc12 | °C | 11.6 |
| CCN(CC)CCOc1nc2ccccc2c2nc3ccccc3nc12 | °C | 2.5 |
| O=c1[nH]c2ccccc2c2nc3ccccc3nc12 | °C | 0 |
| CCN(CC)CCCNc1nc2ccccc2c2nc3ccccc3nc12 | °C | 4.7 |
| Cc1cc2c(=O)n(CCCN(C)C)c3ccccc3c2nn1 | °C | 1.8 |
